meta.source: PubChem BioAssay

assay info: modulators of S6 phosphorylation in cells, primary screen, cell-based, A549, cytoblot, luminescence, serum-stimulated (AID 1158);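 note: serum-stimulated A549 lung adenocarcinoma cells; signal is phosphorylated S6 detected by cytoblot immunostaining with HRP secondary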
measurement parameters: A549 phospho-S6 cytoblot, 5 h, higher = more signal
Decision: z-score compared against -0.2; not below it gives TRUE, below it gives FALSE.

// known answers, use as guide
molecule	category
CC1CC/C=C\[C@H]2OC34C=CCN(CCN5CCOCC5)C(=O)[C@H]3N(C(C)CO)C(=O)[C@@H]4C2C(=O)O1 (stereo not given in full)	TRUE
Cc1ccc([C@H]2C(C(=O)O)=C[C@@H](C(C)(C)C)N2S(=O)(=O)c2ccc(C)cc2)cc1	FALSE
C=CCC(OC(C)=O)[C@@H]1[C@@H](N(Cc2cccc3ccccc23)C(=O)c2cccc3ccccc23)c2cc(OCCCO)ccc2N1C(=O)c1ccc2ccccc2c1 (stereo not given in full)	TRUE

Tell me whether z-score is at least -0.2 here: NCCCCCNC(=O)[C@@H]1C[C@@H]2C(=O)N3CCC[C@H]3C(=O)N2[C@@H]1c1ccc(O)cc1
FALSE

Could you please find out whether C#C[C@@H](CC)O[Si](C#CCCCC#N)(C(C)C)C(C)C has z-score that meets -0.2 or exceeds it?
FALSE

----------
Please go through the items and note down their z-score.
assay info: basal RPMI8226 mitochondrial membrane potential changes, profiling panel, cell-based, JC-1 fluorescence, 24 h, 100 nL compound (AID 1169); note: test concentration not given here
measurement parameters: RPMI8226 myeloma, JC-1 mitochondrial potential fluorescence, higher = more signal
Numbers only.

A selection of reference data follows.
COc1ccc([Si](C)(C)[C@@H]2[C@@H](CCn3cc([C@H](O)c4ccccc4)nn3)O[C@]3(C(=O)N(Cc4cccc(N5C(=O)c6cccc7cccc5c67)c4)c4ccccc43)[C@H]2C)cc1 -0.681
COCCCNC(=O)[C@@]1(Sc2ccc(C)cc2)CC(=O)N(C(C)C)[C@@H]1c1ccc(CO)cc1I -0.205

// next item, z-score requested
Recorded z-score for COc1ccc(C#Cc2ccc3c(c2)[C@]2(C(=O)N3)[C@H](c3ccc(OCCO)cc3)N3[C@H](c4ccccc4)[C@H](c4ccccc4)OC(=O)[C@H]3[C@@H]2C(=O)N2CCc3cc(OC)c(OC)cc3C2)cc1 , please?
-1.23

----------
assay info: small-molecule binders of probe aNOTCH3, primary screen, biochemical, small-molecule microarray, 635/667 nm fluorescence (AID 1120);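 note: probe is a biotin-tagged antibody raised against NOTCH3 rather than NOTCH3 protein; score merges spot fluorescence near 667 nm with spot signal to noise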
measurement parameters: higher = more signal
Class field: derived from composite z-score; ranges band A: < -0.07; band B: ≥ -0.07 and < 0.2; band C: ≥ 0.2

Known results for compounds:
compound	category
COC(=O)[C@@]1(Cc2ccccc2)[C@H]2c3cc(C(=O)N4CCCC4)n(CCSCCO)c3C[C@H]2CN1C(=O)c1ccccc1	band C
CS(=O)(=O)CCOC(=O)C1=CC(CCCO)=CC(C2CC2)N(Cc2cccc(OC(F)(F)F)c2)C=C1C(=O)OCCS(C)(=O)=O (centres undefined)	band B
COc1ccc(C#Cc2ccc3c(c2)[C@]2(C(=O)N3)[C@H](C(=O)N3CCCCCCC3)[C@H]3C(=O)O[C@H](c4ccccc4)[C@H](c4ccccc4)N3[C@@H]2c2ccc(O)cc2)cc1	band C

Class for O=C1O[C@H](c2ccccc2)[C@H](c2ccccc2)N2[C@H]1[C@@H](C(=O)Nc1nc3ccccc3s1)[C@]1(C(=O)Nc3ccc(C#CC4=CCCCC4)cc31)[C@H]2c1ccc(O)cc1 ?
band C

Which of the defined bands does the recorded composite z-score of COc1cc2c(cc1O)C(c1cccs1)N(Cc1sc3ccccc3c1Cl)CC2 (centres undefined) sit within?
band B

----------
assay info: basal S. cerevisiae growth modulation, no modifier, primary screen, OD600, strain BY4716, 24 h, basal condition (AID 1173)
measurement parameters: OD600, 24 h, called active from +8 up or from −8 down
Active and inactive are the calls of the source.
Reply using exactly one outcome from active, inactive

compound	category
C=C/C=C/[C@@H]1C(=C)CN([C@@H](Cc2ccccc2)C(=O)OC)[C@H]1[C@@H](O)Cc1ccccc1	inactive
COCCOC(=O)N1C(=O)[C@@]2(c3cc(C#CC4=CCCCC4)ccc31)[C@H](c1ccc(O)cc1)N1[C@H](c3ccccc3)[C@H](c3ccccc3)OC(=O)[C@H]1[C@@H]2C(=O)NC[C@H](O)c1ccccc1	inactive
C[C@@]12COC[C@]13C=C(Br)[C@H](C2)[C@@]1(CO1)C3=O	inactive
C=C[C@@H](C)[C@@H](OC(=O)Nc1ccc(SC)cc1)c1ccc(OCCO)cc1	inactive
C=CC[C@H](OC(=O)Nc1ccc(SC)cc1)c1ccc(OCCO)cc1	inactive
O=C1OCCC=C[C@H]2OC34C=CCN(c5ccc(Cl)cc5)C(=O)[C@H]3N(CCCCCCO)C(=O)[C@@H]4C12 (stereo not given in full)	inactive
CCOC(=O)C[C@H]1[C@H](OC(=O)c2ccc(-c3ccccc3)cc2)[C@@H](NC(=O)Cc2ccc(OC)cc2)c2cc(OCCCO)ccc2N1C(=O)Cc1ccc(OC)cc1	inactive
C=C(/C(=C/C[C@@H](OC(C)=O)c1ccc(OCCO)cc1)c1cc(C(=O)OC)ccc1OC)C(C)C	inactive

Give the logged outcome of this assay for the following compound: COCCOC(=O)N1C(=O)[C@@]2(c3cc(C#CC4(O)CCCCCC4)ccc31)[C@H](C(=O)N1CCN(c3ncccn3)CC1)[C@H]1C(=O)O[C@H](c3ccccc3)[C@H](c3ccccc3)N1[C@@H]2c1ccccc1OCCO
inactive

Assay outcome for [N-]=[N+]=NCc1ccccc1C[C@@]1(C(=O)N2CCCCC2)N=C(c2ccc(OCCCO)cc2)O[C@@H]1c1ccccc1CN=[N+]=[N-] : what was it?
inactive

I'd appreciate the recorded outcome for C=C(C)C1CCC(C(O)C2C=CC3C(=O)N(C)C(=O)C3N2Nc2cc(OC)c(OC)c(OC)c2)CC1 (stereo not given) from this test.
inactive

Could you please tell me the result logged for CO[C@H]1O[C@H](CO)[C@@H](OC(=O)Nc2cccc(F)c2)[C@H](OC(=O)Nc2ccccc2-c2ccccc2)[C@H]1OC(=O)Nc1ccccc1-c1ccccc1 in this assay?
inactive

Check the results log: what was the call for O=C(N1CCOCC1)[C@@]1(CCS(=O)(=O)c2ccccc2)N=C(c2ccc(OCCCO)cc2)O[C@H]1c1ccccc1 ?
inactive

Record request — test call for Cc1ccc(C(C)CC(O)C2C=CC3C(=O)N(c4ccccc4)C(=O)C3N2Nc2ccc(C#N)cc2)o1 (stereo not given)
active

State the result this test recorded for O=C1NC(=O)C2C1C=CC(C(O)c1ccccn1)N2Nc1ccc(Cl)cc1Cl (stereo not given) .
inactive

----------
assay info: basal RPMI8226 viability, no added stimulus, profiling panel, cell-based, calcein-AM fluorescence, 48 h, PK04 Diversity Set (AID 1166);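 note: cells grown under basal conditions without added stimulus; test concentration not given here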
measurement parameters: RPMI8226 myeloma viability, higher = more signal
readout type: z-score
Numbers only.

Known z-score results, listed for orientation:
compound	z-score
C=CCNC(=O)[C@@H]1[C@H]2C(=O)O[C@H](c3ccccc3)[C@H](c3ccccc3)N2[C@H](c2ccc(OCCO)cc2)[C@@]12C(=O)N(C(=O)OCCOC)c1ccc(C#CCCO)cc12	0.927
O=C1NC(=O)C2C1C=CC(C(O)c1ccccn1)N2Nc1ccc(Cl)cc1Cl (centres undefined)	-0.54
CCCCC(=O)N(CCN1CCOCC1)[C@@H]1CC(C(=O)NCCO)=C[C@H](Oc2c(I)cc(CO)cc2OC)[C@H]1O	-0.157

I have this compound here, CC(C)C(=C=CC[C@@H](O)c1cccc(OCCO)c1)C[C@@H](O)c1ccccn1 , and I need its recorded z-score.
0.128

----------
assay info: anti-His antibody binders, primary screen, artefact control for SMM control protein annotation, biochemical, small-molecule microarray, 635 nm fluorescence (AID 1128);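 note: score merges feature fluorescence with signal-to-noise for each printed compound spot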
measurement parameters: anti-His Alexa647 antibody binding, higher = more signal
Field: composite z-score. Provide a value for each of the molecules that follow.
Give bare numbers.

molecule	composite z-score
COCCCNC(=O)[C@@]1(Sc2ccc(C)cc2)CC(=O)N(C(C)C)[C@@H]1c1ccc(CO)cc1I	-0.578
C[C@]1(C(=O)NCC(F)(F)F)c2ccccc2C(=O)N(Cc2ccccc2)[C@H]1c1ccc(CO)cc1	1.09
O=C(CS)NCCCCCCNC(=O)[C@@H]1C[C@@H]2C(=O)NCC(=O)N2[C@@H]1c1ccc(O)cc1	2.52

Working through the 8 molecules below one at a time, give composite z-score for each.
1. [N-]=[N+]=Nc1ccccc1C[C@]1(C(=O)O)N=C(c2ccc(OCCCO)cc2)O[C@H]1c1ccccc1N=[N+]=[N-]
2. COCCCNC(=O)[C@@]1(c2ccc([N+](=O)[O-])cc2)CC(=O)N(CC23CC4CC(CC(C4)C2)C3)[C@@H]1c1ccc(CO)cc1I
3. CC(C)[Si]1(C(C)C)OCc2cc(-c3ccc(-c4ccc(Cl)c(Cl)c4)o3)nc(CCc3ccccc3)c21
4. C=C(/C(=C/C[C@@H](OC(=O)c1ccncc1)c1cccc(OCCO)c1)c1cnc2ccccc2c1)C(C)C
5. C=CCC(OC(C)=O)[C@@H]1[C@@H](N(Cc2cccc3ccccc23)C(=O)c2ccc(-c3ccccc3)cc2)c2cc(OCCCO)ccc2N1C(=O)c1ccc(-c2ccccc2)cc1 (stereo partly drawn)
6. CCOC(=O)C[C@H]1[C@H](OC(=O)c2ccc(C(=O)c3ccccc3)cc2)[C@@H](NC(=O)CC(C)C)c2cc(OCCCO)ccc2N1C(=O)Cc1ccc(OC)cc1
7. COc1ccc([Si](C)(C)[C@H]2[C@H](CC(=O)N3Cc4ccccc4C[C@H]3CO)O[C@@]3(C(=O)N(Cc4ccc(N5C(=O)c6cccc7cccc5c67)cc4)c4ccccc43)[C@@H]2C)cc1
8. CCOC(=O)C1=C[C@@H](C(C)(C)C)N(S(=O)(=O)c2ccc(C)cc2)[C@H]1c1ccc(C)cc1

[1.45, 1.77, -1.14, 0.787, -0.811, 0.201, 0.33, 0.505]

For every item below, please supply its composite z-score.
1. C=CCNC(=O)[C@H]1[C@@H]2C(=O)O[C@@H](c3ccccc3)[C@@H](c3ccccc3)N2[C@@H](c2ccc(OCCO)cc2)[C@]12C(=O)Nc1ccc(C#CCNC(N)=O)cc12
2. CCOC(=O)C=Cc1ccccc1O
3. COCC(=C=CC[C@@H](O)c1ccc(OCCO)cc1)CCO
4. CC(C)C(CO)N1C(=O)[C@@H]2[C@H]3C(=O)OCC=C[C@H]3OC23C=CCN(C(C)(C)C)C(=O)[C@@H]13 (stereo partly drawn)
5. CC(C)C[C@@H]1NC(=O)[C@H]2C[C@@H](C(=O)NCCCCCN)[C@@H](c3cccc(OCCO)c3)N2C1=O

-0.293
0.712
0.656
-0.54
1.22

Below are 4 molecules. Give each one its composite z-score.
1. Cc1nc2cc(Br)ccc2c(=O)n1Cc1cccc(O)c1
2. C=CCOC(=O)[C@H]1[C@@H]2C(=O)O[C@@H](c3ccccc3)[C@@H](c3ccccc3)N2[C@@H](c2ccc(OCCOC(=O)[C@H]3C[C@H]4C(=O)N[C@@H](CCCCNC(C)=O)C(=O)N4[C@H]3c3cccc(OCCO)c3)cc2)[C@]12C(=O)Nc1ccc(I)cc12
3. COc1ccc(C#Cc2ccc3c(c2)[C@]2(C(=O)N3)[C@H](C(=O)N3CCCCCCC3)[C@H]3C(=O)O[C@H](c4ccccc4)[C@H](c4ccccc4)N3[C@@H]2c2ccc(O)cc2)cc1
4. [N-]=[N+]=NCc1ccccc1[C@@H]1OC(c2ccc(OCCCO)cc2)=N[C@]1(Cc1ccccc1N=[N+]=[N-])C(=O)NCCN1CCOCC1

1. 0.391
2. 1.3
3. 1.21
4. 1.37

Items follow; give composite z-score for each.
1. COc1ccc([Si](C)(C)[C@H]2[C@H](CCO)O[C@@]3(C(=O)N(Cc4ccccc4)c4ccc(N5C(=O)c6ccccc6Oc6ccccc65)cc43)[C@@H]2C)cc1
2. COCCOC(=O)N1C(=O)[C@@]2(c3cc(C#CCC(C(=O)OC)C(=O)OC)ccc31)[C@H](C(=O)NC[C@H](O)c1ccccc1)[C@H]1C(=O)O[C@H](c3ccccc3)[C@H](c3ccccc3)N1[C@@H]2c1ccc(O)cc1
3. C[C@@]12COC[C@]13C=C(Br)[C@H](C2)[C@@]1(CO1)C3=O
4. COc1cc(NN2C(C(O)c3ccc(I)cc3)C=CC3C(=O)N(c4ccccc4)C(=O)C32)cc(OC)c1OC (stereo not drawn)
5. CCCCC(=C=CC[C@H](O)c1ccc(OCCO)cc1)C[C@H](O)c1cc(Cl)cc(Cl)c1O

1: 0.814; 2: 2.58; 3: 0.0359; 4: 2.4; 5: 0.323

Record composite z-score per entry; entries follow.
1. O=C1O[C@H](c2ccccc2)[C@H](c2ccccc2)N2[C@H]1[C@@H](C(=O)N1CCCCCCC1)[C@]1(C(=O)Nc3ccc(C#CC4(O)CCCCCC4)cc31)[C@H]2c1ccc(O)cc1
2. CC(C)=CCCC(C)=CC(O)C1C=CC2C(=O)N(c3ccccc3)C(=O)C2N1Nc1ccccc1F (stereo not drawn)
3. CCCNC(=O)[C@@]1(Sc2ccc(C)cc2)CC(=O)N(C2CCCCC2)[C@@H]1c1ccc(CO)cc1I

[0.821, 1.55, 1.53]
